# tested.system: T1, recombinant cyno Tie2 extracellular domain (cynomolgus monkey, UniProt Q02763 23-748 (human entry))
# T1 construct: also called Recombinant cyno Tie2 ECD; cy Tie2
# T1 chain: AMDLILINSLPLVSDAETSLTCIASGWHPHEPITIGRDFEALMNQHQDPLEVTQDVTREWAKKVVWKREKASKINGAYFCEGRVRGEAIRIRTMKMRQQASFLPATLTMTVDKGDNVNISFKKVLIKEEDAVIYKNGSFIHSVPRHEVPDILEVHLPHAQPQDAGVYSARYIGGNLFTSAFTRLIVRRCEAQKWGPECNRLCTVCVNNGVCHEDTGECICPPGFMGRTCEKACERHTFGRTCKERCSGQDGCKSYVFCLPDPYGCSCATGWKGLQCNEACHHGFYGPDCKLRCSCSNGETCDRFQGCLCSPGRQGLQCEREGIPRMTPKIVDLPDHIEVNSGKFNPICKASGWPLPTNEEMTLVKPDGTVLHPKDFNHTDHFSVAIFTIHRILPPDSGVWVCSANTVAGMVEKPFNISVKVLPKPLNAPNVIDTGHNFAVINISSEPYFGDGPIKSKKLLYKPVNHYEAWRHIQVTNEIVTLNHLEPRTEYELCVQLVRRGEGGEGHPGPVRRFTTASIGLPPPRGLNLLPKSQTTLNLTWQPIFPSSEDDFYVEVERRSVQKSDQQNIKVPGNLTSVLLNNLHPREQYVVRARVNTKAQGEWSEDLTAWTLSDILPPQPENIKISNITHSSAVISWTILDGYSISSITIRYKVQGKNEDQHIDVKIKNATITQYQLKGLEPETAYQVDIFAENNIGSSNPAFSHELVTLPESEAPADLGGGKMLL
# method.notes: SPR, IgG captured, 37C
Kindly supply the reported Normalized Binding Signal, 300 nM values for the records listed here.

**Query** Fill in: Normalized Binding Signal, 300 nM of Tie2.1.M100cC (antibody, IgG1, name in Kabat numbering, V domains shown, hIgG1) VH: EVQLVESGGGLVQPGGSLRLSCAASGFTFSNTDISWVRQAPGKGLEWVGRISPSDGNTYYADSVKGRFTISADTSKNTAYLQMNSLRAEDTAVYYCARRTRWASWACDYWGQGTLVTVSS VL: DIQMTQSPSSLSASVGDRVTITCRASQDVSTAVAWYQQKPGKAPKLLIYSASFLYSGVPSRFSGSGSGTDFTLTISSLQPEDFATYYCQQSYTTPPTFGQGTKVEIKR is ___
**Result** 0.1

**Query** Fill in: Normalized Binding Signal, 300 nM of Tie2.1.M100cI (antibody, IgG1, name in Kabat numbering, V domains shown, hIgG1) VH: EVQLVESGGGLVQPGGSLRLSCAASGFTFSNTDISWVRQAPGKGLEWVGRISPSDGNTYYADSVKGRFTISADTSKNTAYLQMNSLRAEDTAVYYCARRTRWASWAIDYWGQGTLVTVSS VL: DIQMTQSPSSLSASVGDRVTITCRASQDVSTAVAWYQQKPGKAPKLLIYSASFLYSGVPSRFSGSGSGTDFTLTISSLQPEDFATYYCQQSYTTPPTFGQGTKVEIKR is ___
**Result** 0.03

**Query** Fill in: Normalized Binding Signal, 300 nM of Tie2.1.M100cA (antibody, IgG1, name in Kabat numbering, V domains shown, hIgG1) VH: EVQLVESGGGLVQPGGSLRLSCAASGFTFSNTDISWVRQAPGKGLEWVGRISPSDGNTYYADSVKGRFTISADTSKNTAYLQMNSLRAEDTAVYYCARRTRWASWAADYWGQGTLVTVSS VL: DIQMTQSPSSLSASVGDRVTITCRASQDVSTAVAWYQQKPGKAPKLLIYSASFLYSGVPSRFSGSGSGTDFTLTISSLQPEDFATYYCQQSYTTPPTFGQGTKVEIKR is ___
**Result** 0.03

**Query** Fill in: Normalized Binding Signal, 300 nM of Tie2.1.M100cL (antibody, IgG1, name in Kabat numbering, V domains shown, hIgG1) VH: EVQLVESGGGLVQPGGSLRLSCAASGFTFSNTDISWVRQAPGKGLEWVGRISPSDGNTYYADSVKGRFTISADTSKNTAYLQMNSLRAEDTAVYYCARRTRWASWALDYWGQGTLVTVSS VL: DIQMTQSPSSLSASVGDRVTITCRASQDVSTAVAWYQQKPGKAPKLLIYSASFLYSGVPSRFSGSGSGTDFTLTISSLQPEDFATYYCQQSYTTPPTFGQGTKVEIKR is ___
**Result** 0.1
